- measurement description: Phase 1 study BGE-105-101 Part A (SAD), pharmacokinetics after IV infusion
- Type: in vivo, human
- settings: SAD3 (240 mg/1440 mg), Day 1; mean; unit assumed

compound: COc1cccc(OC)c1-n1c(NS(=O)(=O)[C@@H](C)[C@H](C)c2ncc(C)cn2)nnc1-c1cncc(C)c1 [BGE-105]
Dose-normalized Cmax, µg/mL/mg: 0.11

---

- measurement description: Phase 1 study BGE-105-101 Part A (SAD), pharmacokinetics after IV infusion
- Format: in vivo, human
- settings: human, plasma, intravenous, SAD3 (240 mg/1440 mg), Day 3; mean; read-out: AUClast

sample smiles: COc1cccc(OC)c1-n1c(NS(=O)(=O)[C@@H](C)[C@H](C)c2ncc(C)cn2)nnc1-c1cncc(C)c1
AUC(0-t) / µg·h/mL: 1060

---

- measurement description: Phase 1 study BGE-105-101 Part A (SAD), pharmacokinetics after IV infusion
- Format: in vivo, human
- settings: SAD1 (60 mg/360 mg), Day 1; mean; unit assumed
quantity measured: Dose-normalized AUCinf (µg·h/mL/mg)

sample smiles: COc1cccc(OC)c1-n1c(NS(=O)(=O)[C@@H](C)[C@H](C)c2ncc(C)cn2)nnc1-c1cncc(C)c1
endpoint unit: µg·h/mL/mg
result: 0.66

---

- measurement description: Phase 1 study BGE-105-101 Part A (SAD), pharmacokinetics after IV infusion
- Type: in vivo, human
- settings: human, plasma, intravenous; SAD1 (60 mg/360 mg), Day 1; mean

sample smiles: COc1cccc(OC)c1-n1c(NS(=O)(=O)[C@@H](C)[C@H](C)c2ncc(C)cn2)nnc1-c1cncc(C)c1
AUC(0-inf): 39600 ng·h/mL

Numbers sourced from patent US20240122926A1.
